The reported numbers originate from the nanobody polyreactivity screen of Harvey et al. (2022).

Protocol summary: yeast display, Sf9 membrane polyspecificity reagent, FACS + sequencing; frameworks hold sequencing errors
Measurement kind: polyreactivity (PSR sort gate)

QVQLVESGVGLVQAGGSLRLSCAASGSIFPGYAMGWYRQAPGKEMELVAGITWSDARTYYADSVKVRFTISRDNAKNTVYLQMNSLKPEDTAVYYCAADYYYYERDYWGQGTQVTVSS	low polyreactivity
QVQLVESGVGLVQAGGSLRLSCAASGFIFYGYAMGWYRQAPGKERELVAGNSTGGSTNYADSVKGRFTISRENAKNTVYLQMNSMKPEDTAVYDGAVVDVEQHVGHWGQVTQVTVSS	low polyreactivity
QVQLVESWGGLVHAGGSLRLSCAASGSTFYWYAMGWYIQAPGKEREFVARISSSGSSTFYADSVKGRFTISRDNAKNTVYLQMNSLKPEDTAVYYCAAETYRHYCFNYWGQGTQVTVSS	high polyreactivity
QVQIVESGGGLFQAGGSLRISCAASGRPFAPNAMGWYRQAPAKERELVAAITGRGGRTYYADSVKGRFTISRDNANNTVYLQMNSEKPADTAVYYCAYFIAPWGLDFWGQGTEVTVSS	high polyreactivity

Query block: What value of polyreactivity (PSR sort gate) has been recorded for this entry: QVQHVESGGGLVQAGGSLRLSCAASGRIIPGNAMGWYRQAPGKERDLVAAISYGGGSTYYADSVKGRFTISRDNAKNTVYLQMNSLKPEATAVYYCNAGWIRNYGFSIVTYDYWGQGTQVTVSS
Result block: low polyreactivity
